Values from the kinase profiling compilation of Christmann-Franck et al. (2016)

Target: STK33 (human) (UniProt Q9BYT3)
Sequence (Q9BYT3 whole entry, looked up): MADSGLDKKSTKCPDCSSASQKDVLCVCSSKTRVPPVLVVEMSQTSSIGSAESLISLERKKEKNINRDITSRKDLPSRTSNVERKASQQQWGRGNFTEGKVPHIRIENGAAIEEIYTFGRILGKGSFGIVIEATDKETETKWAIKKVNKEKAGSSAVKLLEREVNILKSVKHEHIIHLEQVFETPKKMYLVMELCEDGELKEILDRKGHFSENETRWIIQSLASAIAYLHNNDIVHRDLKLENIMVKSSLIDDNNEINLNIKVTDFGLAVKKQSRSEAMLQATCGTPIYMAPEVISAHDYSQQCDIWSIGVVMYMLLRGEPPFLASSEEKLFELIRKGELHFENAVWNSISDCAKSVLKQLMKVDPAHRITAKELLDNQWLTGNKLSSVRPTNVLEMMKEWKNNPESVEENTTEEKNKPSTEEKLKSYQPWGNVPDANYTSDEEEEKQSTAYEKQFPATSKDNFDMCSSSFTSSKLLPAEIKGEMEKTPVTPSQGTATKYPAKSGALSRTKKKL
Test: radiometric filter-binding kinase assay, Kinase HotSpot
Conditions: compound 0.5 µM; ATP 10 µM
Assay readout: residual activity
A complete answer gives the number and then names the unit.

Worked examples, 4 compounds total:
Reported residual activity of N#C/C(=C(/N)Sc1ccc(N)cc1)c1ccccc1C(F)(F)F : 92.2%

Record CCCC(=O)Oc1ccc2[nH]c(C(=O)c3cc4ccccc4[nH]3)cc2c1 , field residual activity: 92.9%

Reported residual activity for CO[C@H]1[C@@H](OC)C[C@H](C)[C@@H](OC)C2=CC(=O)C=C(NC(=O)/C(C)=C\C=C/[C@H](OC)[C@@H](OC(N)=O)/C(C)=C\[C@@H]1C)C2=O was 97%

For CO[C@H]1CC2CC[C@@H](C)[C@@](O)(O2)C(=O)C(=O)N2CCCC[C@H]2C(=O)OC([C@H](C)C[C@@H]2CC[C@@H](O)[C@H](OC)C2)CC(=O)[C@H](C)/C=C(\C)[C@@H](O)[C@@H](OC)C(=O)[C@H](C)C[C@H](C)/C=C/C=C/C=C/1C (stereo not given in full) the compound record lists residual activity as 105%

Here's the next entry for you.
Query O=C1NC(=O)c2c1c1c3ccccc3n3c1c1c2c2ccccc2n1C1CCC3O1 yields residual activity of 12.7%
